Please go through the items and note down their cFRET/donor change.
System: C2C12 (NDUFB8-AcGFP / COX8A-DsRed-Monomer FRET reporter)
Experiment: cFRET/donor change relative to DMSO, normalised to beta-lapachone positive control (supercomplex I-IV assembly) (fraction of beta-lapachone effect); higher = more respiratory supercomplex assembly
Settings: 40 µM; 24 h
Where a name gives a salt, the structure may show the parent alone. The full ranking holds about 1,000 compounds; the median of “cFRET/donor change relative to DMSO, normalised to beta-lapachone positive control (supercomplex I-IV assembly)” is about 0.18, and the lowest 2% start at about -1. The list comes from a sample in which the lowest values are over-represented; it also holds close analogues and randomly drawn compounds.
Give bare numbers.

In the examples that follow, each entry is paired with its recorded cFRET/donor change.
[
  {
    "COMPOUND": "COc1ccc(Br)cc1S(=O)(=O)NC(=O)/C=C/c1ccccc1Cc1ccc2ccccc2c1",
    "QUANTITATIVE_RESULT": 0.583
  },
  {
    "COMPOUND": "COc1cccc2c1[C@@H]1CN(CCCCn3c(=O)[nH]c4c(sc5ncc(-c6ccccc6)nc54)c3=O)C[C@@H]1CO2 [Fiduxosin hydrochloride]",
    "QUANTITATIVE_RESULT": -1.25
  },
  {
    "COMPOUND": "CNC(=O)[C@H]1O[C@@H](n2cnc3c(NCc4ccc(N)cc4)ncnc32)[C@H](O)[C@@H]1O",
    "QUANTITATIVE_RESULT": 0.125
  }
]

Now look at this one.
Quick check: cFRET/donor change of O=C1CCC(c2ccc(-n3ccnc3)cc2)=NN1 ? 0.0699
